Catalogue of viability, T/C readings, one per entry.
Tested on: 648629-189-R-J1-PDC spheroids with HUVEC/MSC, viability
procedure-summary: Anticancer human tumor 648629-189-R-J1-PDC patient-derived bladder carcinoma cell line growth inhibition [PI3K]
experimental-conditions: second compound 0.0316 µM; first compound 0.01 µM; active compounds read low

molecule | readout-type | measured-result
CCN1CCN(Cc2ccc(Nc3ncc(F)c(-c4cc(F)c5nc(C)n(C(C)C)c5c4)n3)nc2)CC1 + CC(Nc1ncnc2nc[nH]c12)c1cc2cccc(Cl)c2c(=O)n1-c1ccccc1 | viability, T/C | 96.2%
Cn1ncnc1[C@H]1c2n[nH]c(=O)c3cc(F)cc(c23)N[C@@H]1c1ccc(F)cc1 + Cc1nc(NC(=O)N2CCCC2C(N)=O)sc1-c1ccnc(C(C)(C)C(F)(F)F)c1 | viability, T/C | 82.1%

# input for lookup
Give viability, T/C for the following molecule: Cn1ncnc1[C@H]1c2n[nH]c(=O)c3cc(F)cc(c23)N[C@@H]1c1ccc(F)cc1 + CC(Nc1ncnc2nc[nH]c12)c1cc2cccc(Cl)c2c(=O)n1-c1ccccc1
88.1%

###

System: 648629-189-R-J1-PDC spheroids with HUVEC/MSC, viability
procedure-summary: Anticancer human tumor 648629-189-R-J1-PDC cell line growth inhibition [PI3K];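 further: spheroids exposed to agents for seven days before reading; percent of vehicle control luminescence where 100% = DMSO treated spheroids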
experimental-conditions: second compound 0.0316 µM; first compound 0.000316 µM; active compounds read low
readout-type: viability, T/C

molecule | target-desc | viability, T/C
CC(C)n1nc(-c2ccc3oc(N)nc3c2)c2c(N)ncnc21 + Cc1nc(NC(=O)N2CCCC2C(N)=O)sc1-c1ccnc(C(C)(C)C(F)(F)F)c1 | 648629-189-R-J1-PDC spheroids with HUVEC/MSC, viability | 111%
CC(C)n1nc(-c2ccc3oc(N)nc3c2)c2c(N)ncnc21 + COc1c(OCCCN2CCOCC2)ccc2c3n(c(=NC(=O)c4cnc(N)nc4)nc12)CCN3 | 648629-189-R-J1-PDC spheroids with HUVEC/MSC, viability | 79.1%
CC(=O)c1c(C)c2cnc(Nc3ccc(N4CCNCC4)cn3)nc2n(C2CCCC2)c1=O + COc1c(OCCCN2CCOCC2)ccc2c3n(c(=NC(=O)c4cnc(N)nc4)nc12)CCN3 | 648629-189-R-J1-PDC spheroids with HUVEC/MSC, viability | 89.7%
Cn1ncnc1[C@H]1c2n[nH]c(=O)c3cc(F)cc(c23)N[C@@H]1c1ccc(F)cc1 + COc1c(OCCCN2CCOCC2)ccc2c3n(c(=NC(=O)c4cnc(N)nc4)nc12)CCN3 | 648629-189-R-J1-PDC spheroids with HUVEC/MSC, viability | 88.5%
Cn1ncnc1[C@H]1c2n[nH]c(=O)c3cc(F)cc(c23)N[C@@H]1c1ccc(F)cc1 + CC(Nc1ccc2c(c1)OCCn1cc(N3C(=O)OCC3C(F)F)nc1-2)C(N)=O | 648629-189-R-J1-PDC spheroids with HUVEC/MSC, viability | 101%
CC(C)n1nc(-c2ccc3oc(N)nc3c2)c2c(N)ncnc21 + CC(Nc1ccc2c(c1)OCCn1cc(N3C(=O)OCC3C(F)F)nc1-2)C(N)=O | 648629-189-R-J1-PDC spheroids with HUVEC/MSC, viability | 119%
Cn1ncnc1[C@H]1c2n[nH]c(=O)c3cc(F)cc(c23)N[C@@H]1c1ccc(F)cc1 + CC(Nc1ncnc2nc[nH]c12)c1cc2cccc(Cl)c2c(=O)n1-c1ccccc1 | 648629-189-R-J1-PDC spheroids with HUVEC/MSC, viability | 99.8%
Cn1ncnc1[C@H]1c2n[nH]c(=O)c3cc(F)cc(c23)N[C@@H]1c1ccc(F)cc1 + Cc1nc(NC(=O)N2CCCC2C(N)=O)sc1-c1ccnc(C(C)(C)C(F)(F)F)c1 | 648629-189-R-J1-PDC spheroids with HUVEC/MSC, viability | 117%
CC(=O)c1c(C)c2cnc(Nc3ccc(N4CCNCC4)cn3)nc2n(C2CCCC2)c1=O + CC(Nc1ccc2c(c1)OCCn1cc(N3C(=O)OCC3C(F)F)nc1-2)C(N)=O | 648629-189-R-J1-PDC spheroids with HUVEC/MSC, viability | 88.5%
CC(=O)c1c(C)c2cnc(Nc3ccc(N4CCNCC4)cn3)nc2n(C2CCCC2)c1=O + Cc1nc(NC(=O)N2CCCC2C(N)=O)sc1-c1ccnc(C(C)(C)C(F)(F)F)c1 | 648629-189-R-J1-PDC spheroids with HUVEC/MSC, viability | 91.4%

Give viability, T/C for the following molecule: CC(C)n1nc(-c2ccc3oc(N)nc3c2)c2c(N)ncnc21 + CC(Nc1ncnc2nc[nH]c12)c1cc2cccc(Cl)c2c(=O)n1-c1ccccc1
93.2%

Give viability, T/C for the following molecule: CC(=O)c1c(C)c2cnc(Nc3ccc(N4CCNCC4)cn3)nc2n(C2CCCC2)c1=O + CC(Nc1ncnc2nc[nH]c12)c1cc2cccc(Cl)c2c(=O)n1-c1ccccc1
102%
